Data provenance is paper PMC7919060.

Format: in vivo, D409V/D409V mice of C57BL/6 background
Conditions: both, C57BL/6 (Gba D409V/D409V), mouse, spleen, ip, 10 mg/kg
Overview of recorded concentration at 2 h for various compounds
Parameter Measured: concentration at 2 h (ng/g)

{"Compound": "CC(C)(NC(=O)O[C@@H]1CN2CCC1CC2)c1csc(-c2ccc(F)cc2)n1 [Compound 3, reference compound]", "Parameter Measured": "concentration at 2 h", "Val": 4570}
{"Compound": "O=C(CC1Cc2ccccc2C1)N[C@H](CN1CCCC1)[C@H](O)c1ccc(OC(F)(F)F)cc1", "Parameter Measured": "concentration at 2 h", "Val": 4880}

----------
Tested on: P-glycoprotein (MDR1)
Assay: Permeability and efflux in MDR1-MDCK cell monolayer
Assay type: in vitro ADME
Details: dog, MDCK-MDR1
Parameter Measured: Papp A→B (×10⁻⁶ cm/s)

{"Molecule": "O=C(CC1Cc2ccccc2C1)N[C@H](CN1CCCC1)[C@H](O)c1ccc(OC(F)(F)F)cc1", "Unit Name": "×10⁻⁶ cm/s", "Val": 0.95}
{"Molecule": "CC(C)(NC(=O)O[C@@H]1CN2CCC1CC2)c1csc(-c2ccc(F)cc2)n1 [Compound 3, reference compound]", "Unit Name": "×10⁻⁶ cm/s", "Val": 0.58}
